Ref: paper PMC7006637

Test system: α-glucosidase
experiment: α-glucosidase inhibition assay (PNPG substrate, OD 405 nm)
Format: biochemical, Saccharomyces cerevisiae
condition_label: compound at 250 μM; 0.07 U/ml enzyme, 0.5 mM PNPG, pH 6.8, 37 °C
Protocol: The α-glucosidase inhibitory activity was determined on a Thermo Scientific Multiskan GO Microplate Reader. […] Then the 96-well plate was quickly transferred into the microplate reader, incubated at 37 °C for 30 min (1 min shake + 9 min incubation, repeated 3 times). […] The 96-well plate was quickly transferred into the microplate reader and shaken for 30 s. […] The OD value was measured at 405 nm. The inhibition rate was calculated by Equation (1). […]
measurement_kind: Inhibition rate (%)

# annotated cases, reported Inhibition rate shown
compound: CCCCCC1=C(OC)C(OC)=CC(=O)C1=O
Inhibition rate, %: 16.4
//
compound: COC1=CC(=O)C(=O)C(Cc2ccc3ccccc3c2)=C1OC [Compound 16c]
Inhibition rate, %: 37.2
//
compound: CCCCCC1=C(O)C(=O)C=C(OC)C1=O
Inhibition rate, %: 14.9
//
compound: COC1=CC(=O)C(O)=C(CCC2CCCCC2)C1=O [Compound 14b]
Inhibition rate, %: 71.1
//
compound: O=C1C=C(O)C(=O)C(CCC2CCCCC2)=C1O [Compound 14d]
Inhibition rate, %: 85.2
//
compound: CCCCCCCCCC1=C(O)C(=O)C=C(O)C1=O
Inhibition rate, %: 99.4
//
compound: CCCC1=C(OC)C(OC)=CC(=O)C1=O
Inhibition rate, %: 14.9

I. CCCCCCCCCC1=C(O)C(=O)C=C(OC)C1=O
II. CC(C)CCC1=C(O)C(=O)C=C(O)C1=O [Compound 11d]
III. O=C1C=C(O)C(=O)C(Cc2ccc3ccccc3c2)=C1O [Compound 16d]
IV. COC1=CC(=O)C(OC)=C(Cc2ccc3ccccc3c2)C1=O [Compound 16a]
Inquiry: rank_up(items): orders items by reported Inhibition rate in ascending numerical order. # respond with the labels, arranged in the requested order
Reply text: IV, I, II, III
